Below is a list of entries, each paired with its recorded Kd value.
- measurementTarget: T1, GFP-9S library array, motif 4 ND N98S;D124K (synthetic construct, N98S;D124K)
- T1 chain: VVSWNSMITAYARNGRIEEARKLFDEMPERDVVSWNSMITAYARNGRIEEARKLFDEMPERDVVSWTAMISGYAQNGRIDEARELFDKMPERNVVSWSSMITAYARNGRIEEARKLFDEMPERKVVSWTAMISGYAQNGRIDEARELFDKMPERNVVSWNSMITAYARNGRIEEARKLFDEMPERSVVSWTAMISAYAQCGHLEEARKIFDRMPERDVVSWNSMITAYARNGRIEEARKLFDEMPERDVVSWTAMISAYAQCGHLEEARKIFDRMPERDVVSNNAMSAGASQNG
- measurementProtocol: high-throughput RNA pulldown from lysate on Ni-NTA beads; HRP: 50 mM Tris pH 8, 150 mM NaCl, 1 mM beta-mercaptoethanol, 50 ug/ml BSA, 3 ug/ml yeast RNA, 0.5% heparin; ITC and FP: Tris pH 8, 200 mM KCl, 5% glycerol; MST: 50 mM Tris pH 8, 200 mM NaCl, 1 mM DTT, BSA, heparin, 0.05% Tween 20
- measurementContext: tags: N-terminal His-eGFP; label: 5' IRDye 800CW

| binder | Kd |
| --- | --- |
| AUUAUACGUGA (ssRNA) [IR-rpoA-U] | 105 nM |
| AUUAAACGUGA (ssRNA) [IR-rpoA-A] | 134 nM |
